Reported EC50 values follow for various compounds
- Test system: EpiSC-derived OPCs
- TEST_PROTOCOL: In vitro phenotypic screening of OPCs, MBP high-content imaging
- Type: cell-based, mouse
- CONDITION_DESCRIPTION: Mus musculus, 72 h, percentage of MBP+ oligodendrocytes; 3 days; 0.5 nM to 1000 nM; read-out: mOPC EC50
// return numeric value only (unit: nM, not printed)

compound=O=S1(=O)CCC2(CC1)CN(CCOc1ccc(F)c(F)c1)C2 unit_info=nM experimental_value=50.4
compound=CC(C)(CN1CCC2(CC1)CS(=O)(=O)C2)Oc1ccc(C(F)(F)F)nc1 unit_info=nM experimental_value=24
compound="CC(Cc1ccc(C(F)(F)F)cc1)CN1CCC2(C1)CS(=O)(=O)C2 (centres unmarked)" unit_info=nM experimental_value=1.7
compound=CC(C)(CN1CCC2(C1)CS(=O)(=O)C2)Oc1cnc(C(F)(F)F)nc1 unit_info=nM experimental_value=390
compound="C[C@@H](Cc1ccnc(C(F)(F)F)c1)CN1CCC2(C1)CS(=O)(=O)C2 (single isomer, unassigned) [Compound 126A]" unit_info=nM experimental_value=10

Find EC50 (EpiSC-derived OPCs) for the entry C[C@@H](Cc1ccc(C2(C)CC2)cc1)CN1CCC2(C1)CS(=O)(=O)C2 (single isomer, unassigned) [111C*]
6.1

Give EpiSC-derived OPCs EC50 for O=S1(=O)CC2(CCN(CCOc3ccc(F)c(F)c3)CC2)C1
2.9

What EC50 appears in the records for this compound with EpiSC-derived OPCs? O=S1(=O)CC2(CCN(CCOc3ccc([C@H]4CC[C@H](C(F)(F)F)CC4)nc3)CC2)C1 [247A*]
22.8

----------
Each item that follows carries a reported pKi.
- SYSTEM_UNDER_TEST: human emopamil binding protein and human 7-dehydrocholesterol reductase co-expressing cell membrane (Homo sapiens (Human), UniProt Q15125)
- Sequence (Q15125 whole entry): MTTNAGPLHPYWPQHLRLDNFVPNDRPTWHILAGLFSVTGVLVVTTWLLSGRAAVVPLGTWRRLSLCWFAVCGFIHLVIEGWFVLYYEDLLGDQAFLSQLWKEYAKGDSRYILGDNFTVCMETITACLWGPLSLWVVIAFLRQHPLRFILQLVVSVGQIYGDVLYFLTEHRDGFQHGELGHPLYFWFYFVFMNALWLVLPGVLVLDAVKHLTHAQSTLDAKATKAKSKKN
Please treat pKi as minus the base-10 logarithm of the molar concentration.

In the examples that follow, each entry is paired with its recorded pKi.
compound="C[C@H](Cc1cnn(CC(F)(F)F)c1)CN1CCC2(C1)CS(=O)(=O)C2 (single isomer, unassigned) [Compound 154B]" experimental_value=6.84
compound=CC(C)(CN1CCC2(C1)CS(=O)(=O)C2)Oc1cccc(C(F)(F)F)c1 experimental_value=7.88
compound=CC(C)(CN1CCC2(CC1)CS(=O)(=O)C2)Oc1ccc(C(F)(F)F)c(F)c1 experimental_value=7.89
compound=CC(C)(CN1CCC2(C1)CS(=O)(=O)C2)Oc1cnc(C(F)(F)F)nc1 experimental_value=7.02
compound="CCC(C)(C)c1ccc(CCC(C)N2CCC3(C2)CS(=O)(=O)C3)cc1 (racemic)" experimental_value=7.89
compound="C[C@@H](CN1CCC2(CC1)CS(=O)(=O)C2)Oc1ccc(C(F)(F)F)nc1 (single isomer, unassigned) [Example 207A*]" experimental_value=7.47

Proceeding to the next compound to report its pKi.
Find the recorded pKi belonging to CC(Cc1ccc(F)c(F)c1)CN1CCC2(CC1)CS(=O)(=O)C2 (single isomer, unassigned) [212A*] and report it.
7.81

----------
- System: EpiSC-derived OPCs
- TEST_PROTOCOL: In vitro phenotypic screening of OPCs, MBP high-content imaging
- Assay type: cell-based, mouse
- CONDITION_DESCRIPTION: Mus musculus, 72 h, percentage of MBP+ oligodendrocytes; 3 days; 0.5 nM to 1000 nM; read-out: mOPC EC50
OUTCOME_MEASURE: pEC50
Keep it numeric: pEC50 is minus log10 of the concentration in mol/L.

Study these solved cases before continuing.
compound="C[C@@H](Cc1ccc(C(F)(F)F)nc1)CN1CCC2(CC1)CS(=O)(=O)C2 (single isomer, unassigned)" system_under_test="EpiSC-derived OPCs" experimental_value=7.66
compound="C[C@H](Cc1ccc(C(F)(F)F)cc1)CN1CCC2(CC1)CS(=O)(=O)C2 (single isomer, unassigned) [216B*]" system_under_test="EpiSC-derived OPCs" experimental_value=8.48
compound="C[C@@H](Cc1cnc(C(F)(F)F)nc1)CN1CCC2(C1)CS(=O)(=O)C2 (single isomer, unassigned) [Compound 145A]" system_under_test="EpiSC-derived OPCs" experimental_value=7.16
compound=O=S1(=O)CC2(CCN(CCCc3ccc(F)c(F)c3)CC2)C1 system_under_test="EpiSC-derived OPCs" experimental_value=7.63
compound="C[C@H](CN1CCC2(C1)CS(=O)(=O)C2)Oc1ccc(C(F)(F)F)cc1 (single isomer, unassigned) [115A*]" system_under_test="EpiSC-derived OPCs" experimental_value=7.38

Dear colleague, I am looking for the recorded pEC50 of the following compound: CC(C)(CN1CCC2(C1)CS(=O)(=O)C2)Oc1cccc(OC(F)(F)F)c1
8.11

Given the entry CC(Cc1ccc(C2(C)CC2)cc1)CN1CCC2(C1)CS(=O)(=O)C2 (racemic) [Compound 111A] , report its measured pEC50.
7.70

Reported pEC50 for O=S1(=O)CC2(CCN(CCOc3ccc(F)cc3F)CC2)C1 : what is it?
8.17
